Reference source: patent US12612410B2

Recorded pIC50 by entry
ASSAY SYSTEM: UniProt P36888
Sequence (P36888 27-993): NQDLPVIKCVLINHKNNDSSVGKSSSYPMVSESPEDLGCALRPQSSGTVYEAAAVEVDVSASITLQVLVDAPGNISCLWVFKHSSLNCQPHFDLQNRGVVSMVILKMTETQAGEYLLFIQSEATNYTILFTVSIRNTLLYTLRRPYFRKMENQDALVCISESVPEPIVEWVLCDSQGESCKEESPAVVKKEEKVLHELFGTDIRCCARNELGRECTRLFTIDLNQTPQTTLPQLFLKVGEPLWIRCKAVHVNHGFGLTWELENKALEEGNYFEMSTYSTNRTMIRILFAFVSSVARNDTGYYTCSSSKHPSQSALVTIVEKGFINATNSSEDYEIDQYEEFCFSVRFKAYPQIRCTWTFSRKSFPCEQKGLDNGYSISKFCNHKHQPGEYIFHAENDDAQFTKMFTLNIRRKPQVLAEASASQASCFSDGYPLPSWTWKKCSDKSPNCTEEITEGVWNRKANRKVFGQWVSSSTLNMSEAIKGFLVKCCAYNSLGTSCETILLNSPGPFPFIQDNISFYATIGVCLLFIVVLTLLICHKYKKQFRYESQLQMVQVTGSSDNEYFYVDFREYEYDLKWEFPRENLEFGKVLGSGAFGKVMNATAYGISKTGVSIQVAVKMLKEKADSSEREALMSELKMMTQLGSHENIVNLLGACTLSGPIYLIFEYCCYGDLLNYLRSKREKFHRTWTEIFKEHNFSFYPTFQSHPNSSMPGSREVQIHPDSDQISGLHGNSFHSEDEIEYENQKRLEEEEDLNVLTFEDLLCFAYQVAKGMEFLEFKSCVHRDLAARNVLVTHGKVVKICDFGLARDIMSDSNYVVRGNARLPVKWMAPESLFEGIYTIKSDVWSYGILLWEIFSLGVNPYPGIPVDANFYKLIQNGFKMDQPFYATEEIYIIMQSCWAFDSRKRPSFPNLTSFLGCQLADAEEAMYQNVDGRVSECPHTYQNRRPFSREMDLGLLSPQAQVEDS
TEST DESCRIPTION: RBC HotSpot Kinase Assay, FLT3
Format: biochemical
Design: purchased Reaction Biology (RBC), HotSpot kinase assay
RECORDED CONDITIONS: isolated kinase, 33P-ATP
pIC50: −log10 of the molar value.

SMILES REPR: FC(F)(F)C1(c2cn3c(-c4cccc(N[C@@H]5CCCNC5)n4)cnc3cn2)CC1
ASSAY SYSTEM: UniProt P36888
BOUND SIGN: >
pIC50: 9.30
--
SMILES REPR: CC(C)(O)c1cn2c(-c3cccc(N[C@H]4CNC[C@@H]4F)n3)cnc2cn1
ASSAY SYSTEM: UniProt P36888
BOUND SIGN: >
pIC50: 9.30
--
SMILES REPR: O=C1CCCN1c1cn2c(-c3nc(N[C@@H]4CCCNC4)c(F)cc3F)cnc2cn1
ASSAY SYSTEM: UniProt P36888
BOUND SIGN: =
pIC50: 9.05
--
SMILES REPR: O=C1CCCCN1c1cn2c(-c3cccc(N[C@@H]4CCCNC4)n3)cnc2cn1
ASSAY SYSTEM: UniProt P36888
BOUND SIGN: =
pIC50: 9.15
--
SMILES REPR: FC(F)c1cn2c(-c3cccc(N[C@H]4CNCCC4(F)F)n3)cnc2cn1
ASSAY SYSTEM: UniProt P36888
BOUND SIGN: >
pIC50: 9.30
--
SMILES REPR: O=S1(=O)CCCN1c1cn2c(-c3nc(N[C@H]4CNCC[C@@H]4F)c(F)cc3F)cnc2cn1
ASSAY SYSTEM: UniProt P36888
BOUND SIGN: >
pIC50: 9.30
--
SMILES REPR: CC(C)(O)c1cn2c(-c3nc(N[C@@H]4CCCNC4)c(F)cc3F)cnc2cn1
ASSAY SYSTEM: UniProt P36888
BOUND SIGN: =
pIC50: 8.40
--
SMILES REPR: O=C1NCCN1c1cn2c(-c3cccc(N[C@H]4CNCC[C@@H]4F)n3)cnc2cn1
ASSAY SYSTEM: UniProt P36888
BOUND SIGN: =
pIC50: 9.00

----------
ASSAY SYSTEM: IRAK1 (Homo sapiens, UniProt P51617)
Sequence (P51617 whole entry): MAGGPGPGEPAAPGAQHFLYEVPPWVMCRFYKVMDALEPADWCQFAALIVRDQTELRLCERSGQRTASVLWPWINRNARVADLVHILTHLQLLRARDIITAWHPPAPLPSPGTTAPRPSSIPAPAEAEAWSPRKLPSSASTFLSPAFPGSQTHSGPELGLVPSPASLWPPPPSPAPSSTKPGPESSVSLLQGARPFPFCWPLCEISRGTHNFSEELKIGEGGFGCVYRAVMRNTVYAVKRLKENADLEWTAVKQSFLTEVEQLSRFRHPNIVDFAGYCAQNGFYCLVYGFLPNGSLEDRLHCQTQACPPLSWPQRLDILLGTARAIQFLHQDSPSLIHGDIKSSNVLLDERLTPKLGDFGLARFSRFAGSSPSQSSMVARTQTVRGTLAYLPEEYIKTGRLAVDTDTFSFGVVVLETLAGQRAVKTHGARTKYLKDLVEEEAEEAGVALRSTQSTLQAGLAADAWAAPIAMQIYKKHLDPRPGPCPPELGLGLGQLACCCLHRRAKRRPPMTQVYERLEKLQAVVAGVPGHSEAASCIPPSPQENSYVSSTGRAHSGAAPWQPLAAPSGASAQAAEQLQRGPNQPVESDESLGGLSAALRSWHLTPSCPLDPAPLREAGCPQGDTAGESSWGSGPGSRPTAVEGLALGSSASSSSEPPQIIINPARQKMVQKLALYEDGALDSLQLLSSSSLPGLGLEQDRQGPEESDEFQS
TEST DESCRIPTION: RBC HotSpot Kinase Assay, IRAK1
RECORDED CONDITIONS: isolated kinase, 33P-ATP

SMILES REPR: c1cc(N[C@@H]2CCCNC2)nc(-c2cnc3cnc(-c4cnn5ccccc45)cn23)c1
ASSAY SYSTEM: IRAK1 (Homo sapiens, UniProt P51617)
IC50 (nM): 154
--
SMILES REPR: F[C@H]1CNC[C@@H]1Nc1cccc(-c2cnc3cnc(C4(C(F)(F)F)CC4)cn23)n1
ASSAY SYSTEM: IRAK1 (Homo sapiens, UniProt P51617)
IC50 (nM): 138
--
SMILES REPR: F[C@H]1CNC[C@@H]1Nc1cccc(-c2cnc3cnccn23)n1
ASSAY SYSTEM: IRAK1 (Homo sapiens, UniProt P51617)
IC50 (nM): 727
--
SMILES REPR: FC(F)c1cn2c(-c3cccc(N[C@H]4CNC[C@@H]4C(F)(F)F)n3)cnc2cn1
ASSAY SYSTEM: IRAK1 (Homo sapiens, UniProt P51617)
IC50 (nM): 32
--
SMILES REPR: O=C1CCCN1c1cn2c(-c3nc(N[C@H]4CNCC[C@@H]4F)c(F)cc3F)cnc2cn1
ASSAY SYSTEM: IRAK1 (Homo sapiens, UniProt P51617)
IC50 (nM): 130
--
SMILES REPR: O=C1COCCN1c1cn2c(-c3cccc(N[C@@H]4CCCNC4)n3)cnc2cn1
ASSAY SYSTEM: IRAK1 (Homo sapiens, UniProt P51617)
IC50 (nM): 2130
--
SMILES REPR: Cn1cc(-c2cn3c(-c4cccc(N[C@@H]5CCNC5)n4)cnc3cn2)cn1
ASSAY SYSTEM: IRAK1 (Homo sapiens, UniProt P51617)
IC50 (nM): 196
--
SMILES REPR: C[C@H]1CNC[C@@H]1Nc1cccc(-c2cnc3cnccn23)n1
ASSAY SYSTEM: IRAK1 (Homo sapiens, UniProt P51617)
IC50 (nM): 622
--
SMILES REPR: CCOc1cn2c(-c3cccc(N[C@H]4CNC[C@@H]4F)n3)cnc2cn1
ASSAY SYSTEM: IRAK1 (Homo sapiens, UniProt P51617)
IC50 (nM): 165

----------
ASSAY SYSTEM: FLT3 (Homo sapiens)
TEST DESCRIPTION: Reaction Biology NanoBRET target engagement assay, FLT3
Type: cell-based
RECORDED CONDITIONS: transfected HEK-293 cells
pIC50: −log10 of the molar value.
MEASUREMENT KIND: pIC50

SMILES REPR: O=C1CCCN1c1cn2c(-c3nc(N[C@@H]4CCCNC4)c(F)cc3F)cnc2cn1
MEASUREMENT KIND: pIC50
BOUND SIGN: =
OBSERVED RESULT: 7.51
--
SMILES REPR: CC1(c2cn3c(-c4cccc(N[C@H]5CNCC56CC6)n4)cnc3cn2)CC1
MEASUREMENT KIND: pIC50
BOUND SIGN: >
OBSERVED RESULT: 9.30
--
SMILES REPR: F[C@H]1CCNC[C@@H]1Nc1cccc(-c2cnc3cnc(C4CC4)cn23)n1
MEASUREMENT KIND: pIC50
BOUND SIGN: =
OBSERVED RESULT: 8.40
--
SMILES REPR: FC(F)COc1cn2c(-c3cccc(N[C@H]4CNC[C@@H]4F)n3)cnc2cn1
MEASUREMENT KIND: pIC50
BOUND SIGN: =
OBSERVED RESULT: 7.28

----------
Tested on: MOLM14 (D835Y) cells
TEST DESCRIPTION: Combination drug screening with Venetoclax in MOLM14 (D835Y) cells
Type: cell-based
Design: key: negative = synergy, positive = antagonism with Venetoclax; relative score
RECORDED CONDITIONS: combination with Venetoclax, 10 × 10 dataset, 48 hours
Binary call on Sum Excess HSA: TRUE from -200 upward, FALSE beneath that.

MOLECULE: CC(C)(O)c1cn2c(-c3cccc(N[C@H]4CNCC[C@@H]4F)n3)cnc2cn1
GROUP LABEL: TRUE
//
MOLECULE: FC(F)c1cn2c(-c3cccc(N[C@H]4CNCC[C@@H]4F)n3)cnc2cn1
GROUP LABEL: FALSE
//
MOLECULE: CC(C)(O)c1cn2c(-c3nc(N[C@H]4CNCC[C@@H]4F)c(F)cc3F)cnc2cn1
GROUP LABEL: TRUE
//
MOLECULE: CC(O)(c1cn2c(-c3cccc(N[C@H]4CNCC[C@@H]4F)n3)cnc2cn1)C(F)(F)F (single isomer, unassigned) [Compound 80]
GROUP LABEL: FALSE
//
MOLECULE: O=S1(=O)CCCN1c1cn2c(-c3cccc(N[C@H]4CNCC[C@@H]4F)n3)cnc2cn1
GROUP LABEL: TRUE
//
MOLECULE: F[C@H]1CNC[C@@H]1Nc1cccc(-c2cnc3cnc(C4CC4)cn23)n1
GROUP LABEL: FALSE
